- Target: OXA-1 β-lactamase (Class D oxacillinase) (Escherichia coli)
- Sequence (P13661 26-276): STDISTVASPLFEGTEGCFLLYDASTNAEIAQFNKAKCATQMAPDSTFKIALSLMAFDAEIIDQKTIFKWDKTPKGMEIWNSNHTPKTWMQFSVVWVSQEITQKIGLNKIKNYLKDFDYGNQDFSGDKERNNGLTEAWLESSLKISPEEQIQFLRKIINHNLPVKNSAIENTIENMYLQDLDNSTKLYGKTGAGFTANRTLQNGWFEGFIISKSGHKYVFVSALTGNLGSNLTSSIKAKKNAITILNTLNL
- Assay Method Text: β-Lactamase inhibition, OXA-1
- Study Conditions: nitrocefin 100 μM, 486 nm; 15 min preincubation at 37° C., PBS pH 7.4
pIC50: −log10 of the molar value.
Recorded Endpoint: pIC50

- Molecule: "O=C(CN1CCNCC1)N[C@H]1Cc2cccc(C(=O)O)c2OB1O"
  Result: "6.00 to 7.00"
- Molecule: "CNC1CCN(CC(=O)N[C@H]2Cc3cccc(C(=O)O)c3OB2O)CC1O (stereo partly drawn)"
  Result: "> 7.00"

### Prompt # lookup: pIC50 of O=C(CCN1CCNCC1)N[C@H]1Cc2cccc(C(=O)O)c2OB1O
### Response > 7.00
